Tested on: UACC-62 melanoma
Assay: NCI tumour cell line growth inhibition, 48 h
measurement_type: TGI

>>> reported_value("CN(C)CC(C)(C)C(=O)/C=C/c1ccccc1")
"26.5 µM"
>>> reported_value("C/C(=N/NC(=O)c1ccccc1Nc1ccccc1C(=O)N/N=C(\\C)c1ccc(C)cc1)c1ccc(C)cc1")
"> 100 µM"
>>> reported_value("Cc1nc2ccccc2nc1N1CCCC1")
"> 100 µM"
>>> reported_value("CCOC(=O)/C=C/C(Br)=C(Br)/C=C/C(=O)OCC")
"30.9 µM"
>>> reported_value("N#Cc1nc(C(=O)c2ccccc2)oc1N")
"> 100 µM"

# input for lookup
Task: Identify measured TGI corresponding to CC1CC2OC(=N)C1(C#N)C2(C#N)C#N (stereo unspecified)
Output: > 100 µM

---

System: BT-549 breast
Assay: NCI tumour cell line growth inhibition, 48 h
measurement_type: TGI

>>> reported_value("NS(=O)(=O)c1ccc(NS(=O)(=O)c2ccc(NC(=O)N(c3ccccc3)c3ccccc3)cc2)cc1")
"> 100 µM"
>>> reported_value("COC1OC(=O)C(OC)C(OC)C1OC (centres undefined)")
"> 100 µM"
>>> reported_value("Cc1c(-c2ccnc(N)n2)c2c(n1-c1ccccc1)C(=O)c1ccccc1C2=O")
"29.9 µM"
>>> reported_value("CN1CCN(C2CC(=O)c3c(Cl)sc(Cl)c32)CC1 (centres undefined)")
"> 52.2 µM"
>>> reported_value("O=C(CN1CCN(c2cc3c(cc2F)c(=O)c(C(=O)O)cn3C2CC2)CC1)Nc1ccc(C(=O)/C=C/c2ccccc2)cc1")
"> 100 µM"
>>> reported_value("CC(C)(C)C1=CC(O)(c2c3ccccc3c(C3(O)C=C(C(C)(C)C)C(=O)C(C(C)(C)C)=C3)c3ccccc23)C=C(C(C)(C)C)C1=O")
"> 100 µM"
>>> reported_value("Oc1cccc(-c2cn3cc(Cl)ccc3n2)c1")
"> 100 µM"
>>> reported_value("N#CCCCCCn1c2ccccc2c2c3c(c4c5ccccc5[nH]c4c21)C(=O)N(O)C3=O")
"9.53 µM"

# input for lookup
Task: Identify measured TGI corresponding to `CCN1CCN(c2nc(NNC(=O)c3cccc(OC)c3)nc(N3CCN(C(c4ccccc4)c4ccccc4)CC3)n2)CC1`
Output: 9.81 µM

---

Tested on: UO-31 renal
Assay: NCI tumour cell line growth inhibition, 48 h
Please respond with reported TGI for every item in the list.
One number for each entry, in µM.

In the examples that follow, each entry is paired with its recorded TGI.
>>> reported_value("CCOC(=O)C1=C(C)N(c2ccc(Cl)cc2)C2(O)C=CC(=O)C3C(=O)N(c4ccccc4)C(=O)C132 (stereo not given)")
3.31
>>> reported_value("CC(=O)OC1CC2C(C)(C)C(=O)C=C[C@]2(C)C2CCC3(C)C(=CCC3[C@H](CO)C[C@H](O)C(=O)C(C)(C)O)[C@]12C (stereo not given in full)")
39.3
>>> reported_value("CN1CCN(C2CC(=O)c3c(Cl)sc(Cl)c32)CC1 (stereo not given)")
17
>>> reported_value("CCOC(=O)/C=C/C(Br)=C(Br)/C=C/C(=O)OCC")
23.8
>>> reported_value("COc1ccc(C(=O)C(CN(C)C)c2ccccc2)cc1 (stereo not given)")
2.74
>>> reported_value("CN1CCN(Cc2ccc(NC(=O)c3cncc(C#Cc4cncc5[nH]ncc45)c3)cc2C(F)(F)F)CC1")
2.52
>>> reported_value("COc1ccc2c(-c3csc(-c4c[nH]c5ccccc45)n3)c[nH]c2c1")
30.6
>>> reported_value("CCOC(=O)c1sc2[n+](c1C)C(=O)/C(=C/c1ccccc1Cl)S2")
25

State the recorded TGI for every item in the following list.
1. CC(C(=O)C(C)O[Si](c1ccccc1)(c1ccccc1)C(C)(C)C)=P(c1ccccc1)(c1ccccc1)c1ccccc1 (stereo not given)
2. CCCCCC(=O)OCC1(CO)C/C(=C/CC(C(C)C)C(C)C)C(=O)O1 (stereo not given)
3. COc1cc(C2CC(c3cc(Cl)c(C)cc3O)=NN2c2ccc(S(N)(=O)=O)cc2)cc(OC)c1OC (stereo not given)

Output:
17.2
38.2
28.9

---

Test system: NCI-H226 lung
Assay: NCI tumour cell line growth inhibition, 48 h
Please respond with reported TGI for every item in the list.
Give bare numbers, in µM.

>>> reported_value("CCN(Cc1cccc(C)c1)c1ccc(CO)c(Cl)c1")
0.252
>>> reported_value("O=C(Nc1ccc(I)cc1F)c1cc(F)ccc1O")
5.66

State the recorded TGI for every item in the following list.
1. CCC[CH2][Sn]1([CH2]CCC)[O]N=Cc2ccccc2[O]1
2. CC1=NNC(N)=N/C1=C\C(Sc1ccc(Cl)cc1)c1ccc(Cl)cc1Cl (stereo not given)

Output:
1: 3.49; 2: 36.2

---

Test system: NCI-H226 lung
Test: NCI tumour cell line growth inhibition, 48 h
measurement_type: TGI

In the examples that follow, each entry is paired with its recorded TGI.
>>> reported_value("C[S+](C)C1(c2ccccc2)C(=O)c2ccccc2C1=O")
"> 100 µM"
>>> reported_value("c1ccc2c(c1)[C@@H]1O[C@@H]1[C@@]13O[C@@]21[C@H]1O[C@H]1c1ccccc13")
"31.3 µM"

State the recorded TGI for every item in the following list.
1. CC(=O)[O-].CC(=O)[O-].CC(=O)[O-].CC(=O)[O-].CO.CO.CO.[Rh+2].[Rh+2].c1ccc(-c2ccccn2)nc1
2. O=C(O)c1ccccc1/C=C1/Nc2ccccc2C1=O
3. CCN(CC)Cc1cc(Nc2c3ccc(Cl)cc3nc3c(C)cccc23)ccc1O
4. COc1ccc(OC)c([N+](=O)[O-])c1-c1nc2sc(C)cn2c1/C=N/N=C(N)N
5. O=C(Nc1ccccc1C(=O)O)C(=Cc1ccccc1O)NC(=O)c1ccccc1
6. C=C1CC2C[C@H](OS(=O)(=O)c3ccc(C)cc3)C(C1)N2C (stereo not given in full)
7. CCOC(=O)/C=C/C(Br)=C(Br)/C=C/C(=O)OCC

Output:
1: > 100 µM; 2: > 100 µM; 3: 3.51 µM; 4: 92.7 µM; 5: > 100 µM; 6: > 100 µM; 7: 56.1 µM

Task: Report TGI on NCI-H226 lung for this entry: `COc1ccc(Cn2nc(OCc3ccccc3)c3cc([N+](=O)[O-])ccc32)cc1`
Output: > 100 µM

---

Please respond with reported GI50 for every item in the list.
Test system: SF-295 CNS
Assay: NCI tumour cell line growth inhibition, 48 h

State the recorded GI50 for every item in the following list.
1. Clc1ccc2c(NCCNc3nc(Cl)nc4ccccc34)ccnc2c1
2. O=C(c1nc2ccccc2[nH]1)C1C(c2cccc([N+](=O)[O-])c2)C2CC3CCCCC3N2[C@@]12C(=O)Nc1cc(Cl)ccc12 (stereo partly specified)
3. COc1ccc(CN[C@H]2CCc3cc(OC)c(OC)c(OC)c3-c3ccc(SC)c(=O)cc32)c(OC)c1OC
4. Cn1cc(C2=C(c3cccc(Cl)c3)C(=O)NC2=O)c2ccccc21
5. COC(=O)C([O][Ge]([CH3])([CH3])[CH3])c1ccccc1 (stereo unspecified)
6. COc1ccc(C(=O)C(CN(C)C)c2ccccc2)cc1 (stereo unspecified)
7. C=C1C(=O)O[C@H]2[C@H]1CC/C(COC(=O)c1ccc(Br)cc1)=C\CC[C@@]1(C)O[C@@H]21

Output:
1: 1750 nM; 2: 1560 nM; 3: 16.7 nM; 4: > 25000 nM; 5: > 100000 nM; 6: 12600 nM; 7: 1670 nM

State the recorded GI50 for every item in the following list.
1. CCOC(=O)CCC(NC(=O)c1ccc(Nc2nc3cc(N)cc(N)c3nc2-c2ccccc2)cc1)C(=O)OCC (stereo unspecified)
2. COC(=O)C1=C(C)NC(C)=C(C(=O)OC)C1c1ccccc1[N+](=O)[O-]
3. N#CSc1cc(-c2nc3ccccc3o2)ccc1N
4. COc1cc(C2CC(c3cc(Cl)c(C)cc3O)=NN2c2ccc(S(N)(=O)=O)cc2)cc(OC)c1OC (stereo unspecified)

Output:
1. > 42000 nM
2. 57800 nM
3. 17100 nM
4. 1800 nM

---

Please respond with reported TGI for every item in the list.
System: OVCAR-8 ovarian
Experiment: NCI tumour cell line growth inhibition, 48 h

>>> reported_value("O=C1CCC(=O)C(C(=O)CCC(=O)Nc2ccc(Cl)cc2)C1 (stereo unspecified)")
"> 100 µM"
>>> reported_value("CC1CCCc2c(CC3CC(=O)NC(=O)C3)nc(N)nc21 (stereo unspecified)")
"> 100 µM"
>>> reported_value("O=C(Nc1ccccc1C(=O)O)C(=Cc1ccccc1O)NC(=O)c1ccccc1")
"> 100 µM"
>>> reported_value("BrCC[N+]12CCCN1CCC2")
"39.3 µM"
>>> reported_value("O=C(Nc1ccc(I)cc1F)c1cc(F)ccc1O")
"48.7 µM"
>>> reported_value("COc1ccc2c(c1)/C(=N/OC(C)=O)c1c-2c(Nc2ccc(/C(C)=N/OC(C)=O)cc2)nc2ccccc12")
"> 100 µM"
>>> reported_value("COc1cc(C)c(S(=O)(=O)N(CCCN)OCCCN)c(C)c1C")
"> 100 µM"
>>> reported_value("COC(=O)[C@@H](C)C[C@H](Cc1ccccc1)NC(=O)c1csc([C@@H](C[C@H](C(C)C)N(C)C(=O)[C@@H](NC(=O)CN(C)C)C2CC2)OC(C)=O)n1")
"> 16.5 µM"

State the recorded TGI for every item in the following list.
1. Clc1cc(-c2csc(Cl)c2)cs1
2. CC(NC1=NCCO1)c1ccco1 (stereo unspecified)
3. CC1CC/C(=C\c2ccc(F)cc2)C2=C1C(c1ccc(F)cc1)NC(=S)N2 (stereo unspecified)

Output:
1: > 100 µM; 2: > 100 µM; 3: > 100 µM
